# target_or_test_system: human soluble guanylate cyclase alpha 1 and beta 1 subunits (sGC) (Homo sapiens (Human), UniProt Q02108+Q02153)
# Sequence (Q02108 whole entry partner): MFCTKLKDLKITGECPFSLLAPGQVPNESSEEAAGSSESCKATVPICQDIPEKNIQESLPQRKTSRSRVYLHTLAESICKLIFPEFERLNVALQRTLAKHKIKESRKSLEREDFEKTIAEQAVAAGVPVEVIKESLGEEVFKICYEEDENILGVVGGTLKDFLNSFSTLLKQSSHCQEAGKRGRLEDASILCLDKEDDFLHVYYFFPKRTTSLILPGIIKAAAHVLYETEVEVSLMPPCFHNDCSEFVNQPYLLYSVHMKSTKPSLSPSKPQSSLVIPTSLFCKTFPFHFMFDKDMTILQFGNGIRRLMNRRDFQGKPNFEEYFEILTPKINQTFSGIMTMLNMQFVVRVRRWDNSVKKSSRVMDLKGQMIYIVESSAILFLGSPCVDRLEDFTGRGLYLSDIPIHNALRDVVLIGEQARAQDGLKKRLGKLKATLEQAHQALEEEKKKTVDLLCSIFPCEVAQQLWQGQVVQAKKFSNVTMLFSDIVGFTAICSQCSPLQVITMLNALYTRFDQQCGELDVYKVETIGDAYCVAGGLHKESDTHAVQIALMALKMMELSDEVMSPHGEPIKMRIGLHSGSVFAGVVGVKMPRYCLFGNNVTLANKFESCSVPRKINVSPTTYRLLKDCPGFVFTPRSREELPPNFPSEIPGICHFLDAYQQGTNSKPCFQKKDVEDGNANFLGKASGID
# Sequence (Q02153 whole entry): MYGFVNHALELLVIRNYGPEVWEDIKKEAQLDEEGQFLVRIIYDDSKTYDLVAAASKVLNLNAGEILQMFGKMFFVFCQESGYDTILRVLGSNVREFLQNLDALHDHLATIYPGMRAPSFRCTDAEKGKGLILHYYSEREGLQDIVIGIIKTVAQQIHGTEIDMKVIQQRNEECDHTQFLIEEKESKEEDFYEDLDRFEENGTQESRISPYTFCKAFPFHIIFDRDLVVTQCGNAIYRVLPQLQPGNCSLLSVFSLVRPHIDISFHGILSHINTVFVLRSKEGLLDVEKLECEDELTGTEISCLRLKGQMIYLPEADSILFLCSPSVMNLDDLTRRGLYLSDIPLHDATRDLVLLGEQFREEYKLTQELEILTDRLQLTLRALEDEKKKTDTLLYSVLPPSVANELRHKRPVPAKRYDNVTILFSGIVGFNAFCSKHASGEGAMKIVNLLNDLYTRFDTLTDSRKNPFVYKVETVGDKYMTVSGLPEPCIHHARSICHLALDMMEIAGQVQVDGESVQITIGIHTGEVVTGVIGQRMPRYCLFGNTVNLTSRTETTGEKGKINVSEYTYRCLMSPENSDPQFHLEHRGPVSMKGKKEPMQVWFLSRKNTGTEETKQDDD
# method: sGC cellular activator assay (cGMP, HTRF), in the presence and absence of 50% human serum
# condition_summary: CHO cells stably expressing human sGC alpha 1/beta 1, preincubated with 40 microM ODQ; cGMP by HTRF; Table 2 does not state whether with or without 50% human serum
pEC50: −log10 of the molar value.
parameter_measured: pEC50

compound="CO[C@@H]1CN(c2cccc(-c3cccc(C)c3OCc3ccc4c(c3)CCN(C3CCOCC3)C4)n2)CC[C@@H]1C(=O)O [Compound 67]" parameter_measured=pEC50 observed_value=7.64
compound="Cc1c(COc2ccccc2-c2cccc(N3CC[C@@]4(C(=O)O)C[C@H]4C3)n2)ccc2c1CCNC2 [Compound 305]" parameter_measured=pEC50 observed_value=6.47
compound="CCO[C@@H]1CN(c2nc(-c3cccc(C)c3OCc3cc(C)c4c(c3F)CCN(C3CCOCC3)C4)cs2)CC[C@@H]1C(=O)O [Compound 241]" parameter_measured=pEC50 observed_value=8.70
compound="COC[C@H]1N(c2cccc(-c3cccc(C)c3OCc3ccc4c(c3C)CCN(C3CCOCC3)CC4)n2)C[C@@H]2C[C@@]21C(=O)O [Compound 61]" parameter_measured=pEC50 observed_value=8.10
compound="COc1cc(COc2c(C)cccc2-c2csc(N3CC[C@@H](C(=O)O)[C@@H](OC)C3)n2)cc2c1CN(C1COC1)CC2 [Compound 209]" parameter_measured=pEC50 observed_value=7.85
compound="Cc1cccc(-c2cccc(N3CC[C@H](C(=O)O)[C@@H]4OCCC[C@H]43)n2)c1OCc1ccc2c(c1C)CCN(C1COC1)CC2 [Compound 336]" parameter_measured=pEC50 observed_value=7.27
